Target: T1, naked peptide SESTSSMEDY (human)
T1 peptide: SESTSSMEDY
Assay: ELISA naked peptide; scFv 1 ug/mL; repII
Protocol: The peptides were synthesized naked or with a N-terminal Biotin modification with a purity of >98%. All four scFvs were verified by ELISA that can be detected with anti-His antibodies. ELISA was performed for scFv-peptide binding validation. Briefly, naked peptides were coated (50 μg/mL) in 0.58M carbonate-bicarbonate buffer pH9.5, 100 μL/well, 4° C. […]
// values below are reported OD450
Kindly provide the numeric value in OD only, without the unit symbol.

Examples with their reported OD450 follow.
Comparative antibody 1 (Comp-1) scFv, SEQ ID NO: 10 from WO2023/037125 A1, His-tagged (scFv) scFv: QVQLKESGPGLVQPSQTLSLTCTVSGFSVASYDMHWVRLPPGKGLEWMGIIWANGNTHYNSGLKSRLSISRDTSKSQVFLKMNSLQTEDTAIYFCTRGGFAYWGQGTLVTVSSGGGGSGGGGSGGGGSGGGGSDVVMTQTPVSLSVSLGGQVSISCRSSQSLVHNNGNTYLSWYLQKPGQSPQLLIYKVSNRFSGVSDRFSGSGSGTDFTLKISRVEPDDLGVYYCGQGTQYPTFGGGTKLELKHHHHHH; 0.04
CCR9_HUM2 scFv (humanized anti-CCR9 scFv, SEQ ID NO: 17 with C-terminal 6xHis tag) (scFv) scFv: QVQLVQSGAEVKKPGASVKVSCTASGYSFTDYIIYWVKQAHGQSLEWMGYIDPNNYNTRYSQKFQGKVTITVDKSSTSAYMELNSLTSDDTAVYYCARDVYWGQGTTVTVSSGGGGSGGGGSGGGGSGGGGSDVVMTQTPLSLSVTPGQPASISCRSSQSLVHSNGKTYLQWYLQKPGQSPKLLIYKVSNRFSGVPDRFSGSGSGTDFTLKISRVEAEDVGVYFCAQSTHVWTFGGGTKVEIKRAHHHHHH; 0.03
Comparative antibody 2 (Comp-2) scFv, 243LO326 (VH SEQ ID NO: 51 and VL SEQ ID NO: 52 of WO 2022/195028 A2), His-tagged (scFv) scFv: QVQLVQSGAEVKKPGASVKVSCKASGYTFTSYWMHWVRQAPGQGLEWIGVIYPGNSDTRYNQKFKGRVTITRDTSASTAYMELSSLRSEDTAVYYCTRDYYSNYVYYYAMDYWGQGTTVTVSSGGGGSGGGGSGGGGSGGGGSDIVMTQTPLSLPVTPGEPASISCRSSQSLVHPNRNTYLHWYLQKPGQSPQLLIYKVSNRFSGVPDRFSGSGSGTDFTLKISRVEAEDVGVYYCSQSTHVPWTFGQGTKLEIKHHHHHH; 0.02

[ask] Determine from records and report OD450 for Comparative antibody 3 (Comp-3) scFv, SR_92R (Somovilla-Crespo et al. 2018), His-tagged (scFv) scFv: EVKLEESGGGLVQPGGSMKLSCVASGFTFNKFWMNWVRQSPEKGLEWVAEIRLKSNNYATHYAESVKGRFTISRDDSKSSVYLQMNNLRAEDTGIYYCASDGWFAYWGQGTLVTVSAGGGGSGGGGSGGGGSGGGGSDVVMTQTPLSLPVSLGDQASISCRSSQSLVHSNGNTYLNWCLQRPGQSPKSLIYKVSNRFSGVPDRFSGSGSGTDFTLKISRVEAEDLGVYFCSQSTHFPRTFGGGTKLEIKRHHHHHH
[reply] 0.04
